Origin of measurements: patent US20110105397A1

# ASSAY INFO: Human pharmacokinetics, healthy subjects, 24- or 72-hour infusion of 54 ng/kg/min
# TEST CONDITIONS: in vivo, 54 ng/kg/min, healthy subjects, 24- or 72-hour infusion of 54 ng/kg/min, read-out: Mean terminal half-life
TEST READOUT: half-life

INPUT: Name the reported half-life value associated with the substance H-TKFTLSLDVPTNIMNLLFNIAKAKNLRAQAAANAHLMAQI-NH2 [SEQ ID NO: 1]
OUTPUT: 23.4 to 28.8 h

###

# ASSAY INFO: in vivo
# TEST CONDITIONS: mongrel, dog, iv, 0.43 ng/kg/min, [SEQ ID NO: 1] plasma concentration
TEST READOUT: level at time molar at 1 h (pM)
Please state the figure in pM; there is no need to write the unit.

INPUT: // lookup level at time molar at 1 h for H-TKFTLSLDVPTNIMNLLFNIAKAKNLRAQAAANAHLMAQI-NH2 [SEQ ID NO: 1]
OUTPUT: 8.5
